EXPERIMENTAL_DETAILS: DNDI: Cytotoxicity against L929 mouse fibroblasts, CYTO-SP, 24 hour
Type: toxicity, cell-based
CONDITION_DETAILS: mouse, L929 mouse fibroblasts
Please go through the items and note down their IC50 at 24 h.
Write the answer as a number in µg/mL, unit excluded.

Recorded result, CCCCCC(C)NCc1coc(-c2ccc(F)cc2)n1 (stereo unspecified) , IC50 at 24 h: 17

Recorded result, CCCCCC(C)NCc1ccc(-c2ccccc2)o1 (stereo unspecified) , IC50 at 24 h: 32

Recorded result, O/N=C(\NC1CCCCC1)c1ccccc1-c1ccccc1 , IC50 at 24 h: 50

----------
EXPERIMENTAL_DETAILS: DNDI: Solubility in phosphate buffered saline at pH7.4 measured by nephelometry at room temperature (NEPH-RT)
Format: physicochemical
CONDITION_DETAILS: pH 7.4
PARAMETER: solubility kinetic

Recorded result, CCCCOc1ccc(-c2nc(CNCCC3CCCN3C)co2)cc1 (stereo not drawn) , solubility kinetic: 2 µM

Recorded result, O/N=C(/Nc1ccc(F)cc1)c1ccccc1-c1ccccc1 , solubility kinetic: 25 µM

Recorded result, Fc1cccc(-c2cc3nc(-c4ccccc4)cc(NCCCN4CCOCC4)n3n2)c1 , solubility kinetic: 3 µM

Recorded result, O/N=C(\NC1CCCCC1)c1c(F)cccc1F , solubility kinetic: 50 µM

Recorded result, COc1ccccc1CNC(CCc1ccccc1)c1nc(Cc2ccccc2)c(N2CCCCC2)o1 (stereo not drawn) , solubility kinetic: 2 µM

Recorded result, O/N=C(\NCC1CC1)c1ccccc1-c1ccccc1 , solubility kinetic: > 200 µM

Recorded result, CCCCc1ccc(-c2nc(CNCCN(C)C)co2)cc1 , solubility kinetic: 1 µM

Recorded result, COc1ccc(/C(=N/O)Nc2cccc(C#N)c2)cc1 , solubility kinetic: 50 µM

Recorded result, CCCCc1ccc(-c2nc(CNCCCN(C)C)co2)cc1 , solubility kinetic: < 1 µM

Recorded result, CCCCc1ccc(-c2nc(CNCc3c(OC)cccc3OC)co2)cc1 , solubility kinetic: 6 µM

Recorded result, CCCCCOc1ccc(-c2nc(CN[C@@H]3C[C@@H]4C[C@H]([C@H]3C)C4(C)C)co2)cc1 , solubility kinetic: 2 µM

Recorded result, CCCCc1ccc(-c2nc(CNC3CC(C)CC(C)(C)C3)co2)cc1 (stereo not drawn) , solubility kinetic: 6 µM

Recorded result, CCCCCC(C)NCc1coc(-c2ccc(C(C)C)cc2)n1 (stereo not drawn) , solubility kinetic: 3 µM

Recorded result, CCCCc1ccc(-c2nc(CNC[C@@H]3CC[C@H]4C[C@@H]3C4(C)C)co2)cc1 , solubility kinetic: 3 µM

Recorded result, CCN(CC)CCCNc1cc(-c2ccccc2)nc2cc(-c3ccc(F)cc3)nn12 , solubility kinetic: 25 µM

Recorded result, CCC(C)C(NCc1ccccc1OC)c1nc(-c2ccccc2)c(N2CCCCC2)o1 (stereo not drawn) , solubility kinetic: 2 µM

Recorded result, Cc1cc(NCCCn2ccnc2)n2nc(-c3cccc(F)c3)cc2n1 , solubility kinetic: 25 µM

Recorded result, O=C1CCCN1CCCNc1cc(-c2ccccc2)nc2cc(-c3ccc(F)cc3)nn12 , solubility kinetic: 6 µM

Recorded result, Cc1cc(NCCN(C)C)n2nc(-c3cccc(F)c3)cc2n1 , solubility kinetic: 100 µM

Recorded result, O/N=C(/NC1CCCCC1)c1cccc2ccccc12 , solubility kinetic: 50 µM

Recorded result, COc1ccc(/C(=N/O)Nc2ccc(F)cc2)cc1 , solubility kinetic: 100 µM

Recorded result, FC(F)(F)c1ccc(CNC(c2nc(Cc3ccccc3)c(N3CCOCC3)o2)C2CC2)cc1 (stereo not drawn) , solubility kinetic: 6 µM

Recorded result, COc1ccc(/C(=N/O)Nc2cccc(C(F)(F)F)c2)cc1 , solubility kinetic: 25 µM

----------
CONDITION_DETAILS: mouse, microsomes, 1 µM
Description: DNDI: in vitro intrinsic clearance in mouse liver microsomes at a concentration of 1uM
PARAMETER: CLint in vitro (µL/min/mg)
Write the answer as a number in µL/min/mg, unit excluded.

Recorded result, CCCCCOc1ccc(-c2nc(CNC3CCCCCC3)co2)cc1 , CLint in vitro: 8

Recorded result, COC/C(=N/O)c1ccc(OC)cc1 , CLint in vitro: 19

Recorded result, CC(C)(C)CNCc1coc(-c2ccc(OCC(C)(C)C)cc2)n1 , CLint in vitro: 3

Recorded result, CCCCc1ccc(-c2nc(CNCCCN(C)C)co2)cc1 , CLint in vitro: 9

Recorded result, Cc1ccc(Oc2ncccc2/C(=N/O)NC2CCCCC2)cc1 , CLint in vitro: 244.61

Recorded result, CCCCCOc1ccc(-c2nc(CNC3[C@H]4C[C@@H]5C[C@@H](C[C@H]3C5)C4)co2)cc1 (stereo partly specified) , CLint in vitro: 27

Recorded result, O/N=C(/c1ccccc1-c1ccccc1)N1CCCCC1 , CLint in vitro: 157

Recorded result, Cc1ccc(CNC(CC(C)C)c2nc(Cc3ccccc3)c(N3CCOCC3)o2)cc1 (stereo unspecified) , CLint in vitro: 155

Recorded result, Cc1cccc(CNC(c2ccccc2)c2nc(Cc3ccccc3)c(N3CCOCC3)o2)c1 (stereo unspecified) , CLint in vitro: 217

Recorded result, COc1ccc(N/C(=N/O)c2ccccc2-c2ccccc2)cc1 , CLint in vitro: 166

Recorded result, CCC(C)C(NCc1ccco1)c1nc(-c2ccccc2)c(N2CCCCC2)o1 (stereo unspecified) , CLint in vitro: 206

----------
EXPERIMENTAL_DETAILS: in vitro
CONDITION_DETAILS: human, microsomes
Description: DNDI: in vitro intrinsic clearance in human liver microsomes at a concentration of 1uM
PARAMETER: microsomal CLint at 1 µM (µL/min/mg)
Write the answer as a number in µL/min/mg, unit excluded.

Recorded result, O/N=C(\NC1CCCCC1)c1cccnc1 , microsomal CLint at 1 µM: 3

----------
Please go through the items and note down their IC50 at 24 h.
EXPERIMENTAL_DETAILS: DNDI: Cytotoxicity against L929 mouse fibroblasts, CYTO-SP, 24 hour
Format: toxicity, cell-based
CONDITION_DETAILS: mouse, L929 mouse fibroblasts

Recorded result, CC(C)c1ccc(Oc2ncccc2/C(=N/O)NC2CCc3ccccc32)cc1 (stereo not given) , IC50 at 24 h: 45.1 µg/mL

Recorded result, COc1cccc(/C(=N/O)NC2CCCCC2)c1 , IC50 at 24 h: > 50 µg/mL

Recorded result, Clc1ccsc1-c1nc(CNC2CCCCCC2)co1 , IC50 at 24 h: > 50 µg/mL

Recorded result, CCc1ccc(N/C(=N/O)c2ccc(OC)cc2)cc1 , IC50 at 24 h: > 50 µg/mL

Recorded result, CCCOc1ccc(-c2nc(CNC3CCCCCC3)co2)cc1 , IC50 at 24 h: 15.8 µg/mL

Recorded result, CCCCCOc1ccc(-c2nc(CN[C@@H]3C[C@@H]4C[C@H]([C@H]3C)C4(C)C)co2)cc1 , IC50 at 24 h: 38.9 µg/mL

Recorded result, CC(C)(C)c1ccc(-c2nc(CNC[C@@H]3CC[C@H]4C[C@@H]3C4(C)C)co2)cc1 , IC50 at 24 h: > 50 µg/mL

Recorded result, CC(C)N1CCN(/C(=N\O)c2cccnc2Oc2cccc(C(F)(F)F)c2)CC1 , IC50 at 24 h: > 50 µg/mL

Recorded result, CC1CC(NCc2coc(-c3ccc(Cl)cc3)n2)CC(C)(C)C1 (stereo not given) , IC50 at 24 h: > 50 µg/mL

Recorded result, CC(C)(C)CN/C(=N\O)c1ccc(Oc2cc(Cl)ccc2Cl)nc1 , IC50 at 24 h: > 50 µg/mL

----------
EXPERIMENTAL_DETAILS: DNDI: Lipophilicity measured in Chromatographic hydrophobicity index (CHI) assay, pH 7.4
Format: physicochemical
CONDITION_DETAILS: buffer
PARAMETER: chromatographic logD
Give only the figure.

Recorded result, CN(C)CCNc1cc(-c2ccccc2)nc2cc(-c3ccc(F)cc3)nn12 , chromatographic logD: 5.2

Recorded result, CCCCCOc1ccc(-c2nc(CNC[C@@H]3CC[C@H]4C[C@@H]3C4(C)C)co2)cc1 , chromatographic logD: 6.45

Recorded result, COc1cc(C)ccc1Oc1ncccc1/C(=N/O)NC1CCCCC1 , chromatographic logD: 4

Recorded result, O/N=C(/Nc1ccc(F)cc1)c1ccccc1-c1ccccc1 , chromatographic logD: 3.98

Recorded result, CCCCCC(C)NCc1coc(-c2ccc(Cl)cc2)n1 (configuration not stated) , chromatographic logD: 5.02

Recorded result, O/N=C(\NC1CCCCC1)c1ccc(F)cc1 , chromatographic logD: 4.02

Recorded result, COc1ccc(/C(=N/O)Nc2cccc(F)c2)cc1 , chromatographic logD: 3.09

Recorded result, O/N=C(\NC1CCCCC1)c1cccnc1 , chromatographic logD: 2.82

Recorded result, CCCCCC(C)NCc1coc(-c2ccc(C)cc2)n1 (configuration not stated) , chromatographic logD: 4.66

Recorded result, O/N=C(/NC1CCCCC1)c1cccnc1Oc1ccccc1Cl , chromatographic logD: 4.52

Recorded result, COc1ccc(/C(=N\O)Nc2ccccc2)cc1 , chromatographic logD: 3.1

Recorded result, COc1ccc(C(=O)OC2=CC(=O)N(C)C2)cc1 , chromatographic logD: 2.72

Cited source for all entries: ChEMBL document CHEMBL1857833
